log P overview
- Type: physicochemical
- Measurement Conditions: method [a]: HPLC/LC-MS on reversed phase at pH 2.7, 0.1% formic acid in water / acetonitrile, gradient 10% to 95% acetonitrile

Please review the entries below; each comes with its answer.
{"Compound": "COC1(C(=O)NC(C)C)CC(c2ccc3ncc(I)cc3c2)=NO1 (racemic) [compound 436]", "Measured Metric": "log P", "Reported Result": "2.75[a]"}
{"Compound": "C#Cc1cnc2ccc(C3=NOC(OC)(C(=O)NC(C)C)C3)cc2c1 (centres unmarked) [compound 406]", "Measured Metric": "log P", "Reported Result": "2.35[a]"}
{"Compound": "CC(C)NC(=O)C1(C)CC(c2ccc3ncc(N)cc3c2)=NO1 (racemic) [compound 435]", "Measured Metric": "log P", "Reported Result": "1.19[a]"}
{"Compound": "CC1(C(=O)NC(CN2CCCC2)C2CC2)CC(c2ccc3ncc(Br)cc3c2)=NO1 (centres unmarked) [compound 364]", "Measured Metric": "log P", "Reported Result": "1.53[a]"}
{"Compound": "CC1(C(=O)NCc2nccs2)CC(c2ccc3ncc(Br)cc3c2)=NO1 (centres unmarked) [compound 488]", "Measured Metric": "log P", "Reported Result": "2.32[a]"}
{"Compound": "CCn1cc(CNC(=O)C2(C)CC(c3ccc4nc(C#N)c(I)cc4c3)=NO2)c(C)n1 (racemic) [compound 431]", "Measured Metric": "log P", "Reported Result": "2.57[a]"}
{"Compound": "CCn1cc(CNC(=O)C2(C)CC(c3ccc4ncc(-c5ccco5)cc4c3)=NO2)c(C)n1 (racemic) [compound 379]", "Measured Metric": "log P", "Reported Result": "2.37[a]"}

Alright, here's another compound for you.
## Input Suppose we examine the compound CCn1cc(CNC(=O)C2(C)CC(c3ccc4nc(C(N)=O)c(I)cc4c3)=NO2)c(C)n1 (centres unmarked) [compound 484] ; what log P value has been reported?
## Output 1.60[a]

====

- Assay type: physicochemical
- Measurement Conditions: HPLC on reversed phase columns, method [a]: pH 2.7, 0.1% formic acid in water / acetonitrile, linear gradient 10% to 95% acetonitrile
Measured Metric: log P

Please review the entries below; each comes with its answer.
{"Compound": "CCCn1cc(CNC(=O)C2(C(C)=O)CC(c3ccc4ncc(Br)cc4c3)=NO2)c(C)n1 (centres unmarked)", "log P": "2.80[a]"}
{"Compound": "CCCn1cc(CNC(=O)C2(OC)CC(c3cc(Cl)c4ncc(Br)cc4c3)=NO2)c(C)n1 (centres unmarked)", "log P": "3.08[a]"}
{"Compound": "C#Cc1cnc2ccc(C3=NOC(C)(C(=O)NC(C)c4cn(CC)nc4C)C3)cc2c1 (centres unmarked)", "log P": "2.28[a]"}
{"Compound": "CON=CC(C)(C)NC(=O)C1(C)CC(c2ccc3ncc(Br)cc3c2)=NO1 (centres unmarked)", "log P": "3.29[a]"}
{"Compound": "CC(C)C(C)(C)NC(=O)C1(C)CC(c2ccc3ncc(Br)cc3c2)=NO1 (centres unmarked)", "log P": "4.19[a]"}
{"Compound": "CC1(C)OCC(CNC(=O)C2(C)CC(c3cc(Cl)c4ncc(Br)cc4c3)=NO2)O1 (centres unmarked)", "log P": "3.17[a]"}
{"Compound": "C#Cc1cnc2c(Cl)cc(C3=NOC(OC)(C(=O)NC4CCC4)C3)cc2c1 (centres unmarked)", "log P": "3.02[a]"}

Alright, here's another compound for you.
## Input Suppose we examine the compound C#CC1(C(=O)NC2CCC2)CC(c2ccc3ncc(Br)cc3c2)=NO1 (centres unmarked) ; what log P value has been reported?
## Output 3.11[a]

====

log P overview
- Type: physicochemical
- Measurement Conditions: HPLC on reversed phase columns, method [a]: pH 2.7, 0.1% formic acid in water / acetonitrile, linear gradient 10% to 95% acetonitrile

Please review the entries below; each comes with its answer.
{"Compound": "C#Cc1cnc2c(C)cc(C3=NOC(OC)(C(=O)NCC4COC(C)(C)O4)C3)cc2c1 (centres unmarked)", "log P": "2.92[a]"}
{"Compound": "C#Cc1cnc2ccc(C3=NOC(C)(C(=O)NCc4cn(CCCC)nc4C)C3)cc2c1 (centres unmarked)", "log P": "2.64[a]"}
{"Compound": "CC1(C(=O)NCC(F)F)CC(c2ccc3ncc(Br)cc3c2)=NO1 (centres unmarked)", "log P": "2.56[a]"}
{"Compound": "COC1(C(=O)NC(C)C)CC(c2ccc3ncc(Br)cc3c2)=NO1 (single isomer, unassigned) [compound 284]", "log P": "2.58[a]"}
{"Compound": "C#Cc1cnc2ccc(C3=NOC(C)(C(=O)NC(C)c4ccc(OC(F)(F)F)cc4)C3)cc2c1 (centres unmarked)", "log P": "3.71[a]"}

Alright, here's another compound for you.
## Input Suppose we examine the compound C#Cc1cnc2ccc(C3=NOC(C)(C(=O)NC(C)c4ccsc4)C3)cc2c1 (centres unmarked) ; what log P value has been reported?
## Output 2.96[a]

====

- System: Septoria tritici
- Assay Explanation: In vivo preventive test on Septoria tritici (leaf spot on wheat)
- Measurement Conditions: 500 ppm; wheat plants sprayed 24 hours before contamination; grading 21 to 28 days after contamination vs control plants
- Description: Wheat plants (“Scipion” variety), sown in starter cups on a 50/50 peat soil-pozzolana substrate and grown at 22° C. (12 h)/20° C. (12 h), are treated at the 1-leaf stage (10 cm height) by spraying with the active ingredient prepared as described above. Plants, used as controls, are treated with the mixture of acetone/tween/DMSO/water not containing the active material. […]
Measured Metric: % of efficacy (protection) (%)
Please reply with the bare figure in % and do not write the unit itself.

Please review the entries below; each comes with its answer.
{"Molecule": "CCC(NC(=O)C1(C)CC(c2ccc3ncc(Br)cc3c2)=NO1)c1cn(CC)nc1C (stereo not shown)", "Reported Result": 100}
{"Molecule": "C#Cc1cnc2ccc(C3=NOC(C)(C(=O)NC(C)C4=NOCC4)C3)cc2c1 (stereo not shown)", "Reported Result": 100}

## Input Suppose we examine the molecule CCn1cc(CNC(=O)C2(SC)CC(c3ccc4ncc(Br)cc4c3)=NO2)c(C)n1 (stereo not shown) ; what % of efficacy (protection) value has been reported?
## Output 100

## Input Try this molecule next: C#Cc1cnc2ccc(C3=NOC(C)(C(=O)NC(C)c4cn(CC)nc4C)C3)cc2c1 (stereo not shown)
## Output 100

====

log P overview
- Assay type: physicochemical
- Measurement Conditions: HPLC on reversed phase columns, method [a]: pH 2.7, 0.1% formic acid in water and acetonitrile, linear gradient 10% to 95% acetonitrile

{"Compound": "C#Cc1cnc2ccc(C3=NOC(C)(C(=O)NCC4CS(=O)(=O)CCO4)C3)cc2c1 (centres unmarked)", "Reported Result": "1.93[a]"}

## Input Suppose we examine the compound CC1(C(=O)NCCC2CCCO2)CC(c2ccc3ncc(Br)cc3c2)=NO1 (centres unmarked) ; what log P value has been reported?
## Output 2.39[a]

## Input Try this compound next: C#Cc1cnc2ccc(C3=NOC(C)(C(=O)NCc4cccnc4OCC)C3)cc2c1 (centres unmarked)
## Output 2.84[a]

## Input Try this compound next: CC1(C(=O)NCC2CCC2)CC(c2ccc3ncc(Br)cc3c2)=NO1 (centres unmarked)
## Output 3.25[a]

## Input Try this compound next: CC1(C(=O)NCc2ccnc(F)c2)CC(c2ccc3ncc(Br)cc3c2)=NO1 (centres unmarked)
## Output 2.51[a]

====

% of efficacy (protection) overview
- Test system: Uromyces appendiculatus
- Assay Explanation: In vivo preventive test on Uromyces appendiculatus (bean rust)
- Measurement Conditions: 500 ppm; bean plants sprayed 24 hours before contamination; grading 10 days after contamination vs control plants
Please reply with the bare figure in % and do not write the unit itself.

{"Compound": "CC1(C)OCC(CNC(=O)C2(C)CC(c3ccc4ncc(Br)cc4c3)=NO2)O1 (stereo not drawn) [compound 129]", "Unit": "%", "Reported Result": 100}
{"Compound": "C/C(=N\\O)C1(C(=O)NC(C)C)CC(c2ccc3ncc(Br)cc3c2)=NO1 (stereo not drawn) [compound 420]", "Unit": "%", "Reported Result": 97}
{"Compound": "COC1(C(=O)NC2CC2)CC(c2ccc3ncc(I)cc3c2)=NO1 (racemic) [compound 450]", "Unit": "%", "Reported Result": 91}
{"Compound": "CC(C)NC(=O)C1(C)CC(c2ccc3ncc(N)cc3c2)=NO1 (racemic) [compound 435]", "Unit": "%", "Reported Result": 77}
{"Compound": "COC1(C(=O)NC(C)C)CC(c2ccc3ncc(I)cc3c2)=NO1 (racemic) [compound 436]", "Unit": "%", "Reported Result": 100}

## Input Suppose we examine the compound Cn1cc(NC(=O)C2(C)CC(c3ccc4ncc(Br)cc4c3)=NO2)cn1 (racemic) [compound 434] ; what % of efficacy (protection) value has been reported?
## Output 97

## Input Try this compound next: COC1(C(=O)NCC(O)CO)CC(c2ccc3ncc(Br)cc3c2)=NO1 (stereo not drawn) [compound 477]
## Output 86

## Input Try this compound next: CC(NC(=O)C1(C)CC(c2ccc3ncc(Br)cc3c2)=NO1)c1ccccn1 (stereo not drawn) [compound 205]
## Output 70

## Input Try this compound next: CC(C)NC(=O)C1(C(F)F)CC(c2ccc3ncc(Br)cc3c2)=NO1 (stereo not drawn) [compound 480]
## Output 83
